Listed variants paired with reported STK11 functional score
B1: library; numbered along this chain (parent)
chain: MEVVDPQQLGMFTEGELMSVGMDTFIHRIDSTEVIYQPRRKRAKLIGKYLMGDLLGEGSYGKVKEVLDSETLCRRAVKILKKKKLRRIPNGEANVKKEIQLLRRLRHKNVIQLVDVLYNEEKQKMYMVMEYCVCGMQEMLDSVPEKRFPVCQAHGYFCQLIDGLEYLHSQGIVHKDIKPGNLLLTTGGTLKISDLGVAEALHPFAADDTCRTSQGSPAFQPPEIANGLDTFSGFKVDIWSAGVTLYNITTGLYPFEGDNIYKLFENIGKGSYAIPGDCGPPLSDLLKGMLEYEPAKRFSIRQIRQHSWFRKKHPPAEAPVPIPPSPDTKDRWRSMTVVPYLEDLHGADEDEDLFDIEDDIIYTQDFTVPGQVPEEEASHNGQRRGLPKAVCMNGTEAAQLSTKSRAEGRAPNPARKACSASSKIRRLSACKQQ

- Variants of: B1
- test_summary: STK11 functional score (HeLa growth suppression), rescaled enrichment; synonymous median = 1, nonsense median = 0 (normalised score)
- condition_notes: with HeLa; variant type: missense
Give the figure only, with no unit attached.

Solved cases (4 shown):
[[record]]
changes = "K81H"
metric_name = "STK11 functional score"
measured_value = 1.25

[[record]]
changes = "L427W"
metric_name = "STK11 functional score"
measured_value = 1.53

[[record]]
changes = "I300C"
metric_name = "STK11 functional score"
measured_value = 0.803

[[record]]
changes = "E375W"
metric_name = "STK11 functional score"
measured_value = 1.54


Qu. Could you please provide reported STK11 functional score for `L167F` ? Thanks!
Ans. 1.05

Qu. Identify measured STK11 functional score associated with `S428C`
Ans. 1.4

Qu. Please give the documented STK11 functional score of `M392L`
Ans. 1.57
